- Read-out: Tumor necrosis factor (Homo sapiens)
- method: BSK_LPS_TNFa: BioMAP Diversity Plus: LPS Assay for Tumour Necrosis Factor alpha (TNFa) Biomarker Activity (AID 2283085)
- settings: primary human HUVEC with PBMC; actives raise or lower the signal
The source made the active and inactive calls. The calls were made as follows: active = hit-call score of the fitted dose curve at least 0.9, where 1 is the maximum; inactive = score below 0.9.
Your answer must be one of the following: true (1) for active, false (0) for inactive

{"chemical-smiles": "O=C(Oc1ccccc1)c1ccccc1C(=O)Oc1ccccc1", "discrete-label": "false (0)"}
{"chemical-smiles": "CCCCCCCCCCCC(=O)N(C)CC(=O)O", "discrete-label": "false (0)"}
{"chemical-smiles": "CCOC(=O)C1=NOC(c2ccccc2)(c2ccccc2)C1", "discrete-label": "false (0)"}
{"chemical-smiles": "C=CC(=O)NCOCCCC", "discrete-label": "true (1)"}
{"chemical-smiles": "CCCCCCC=O", "discrete-label": "false (0)"}

Ask | What is the recorded call for this compound in the test? CCCCCCCCCCCC(C)=O
Reply | true (1)

Ask | What is the recorded call for this compound in the test? CC(C)CCCCCOC(=O)CS
Reply | false (0)

Ask | What is the recorded call for this compound in the test? O=C(O)C(F)(F)C(F)(F)C(F)(F)C(F)(F)C(=O)O
Reply | false (0)
